Biological target: α1d (rat) (Rattus norvegicus, UniProt P23944)
Sequence (P23944 whole entry): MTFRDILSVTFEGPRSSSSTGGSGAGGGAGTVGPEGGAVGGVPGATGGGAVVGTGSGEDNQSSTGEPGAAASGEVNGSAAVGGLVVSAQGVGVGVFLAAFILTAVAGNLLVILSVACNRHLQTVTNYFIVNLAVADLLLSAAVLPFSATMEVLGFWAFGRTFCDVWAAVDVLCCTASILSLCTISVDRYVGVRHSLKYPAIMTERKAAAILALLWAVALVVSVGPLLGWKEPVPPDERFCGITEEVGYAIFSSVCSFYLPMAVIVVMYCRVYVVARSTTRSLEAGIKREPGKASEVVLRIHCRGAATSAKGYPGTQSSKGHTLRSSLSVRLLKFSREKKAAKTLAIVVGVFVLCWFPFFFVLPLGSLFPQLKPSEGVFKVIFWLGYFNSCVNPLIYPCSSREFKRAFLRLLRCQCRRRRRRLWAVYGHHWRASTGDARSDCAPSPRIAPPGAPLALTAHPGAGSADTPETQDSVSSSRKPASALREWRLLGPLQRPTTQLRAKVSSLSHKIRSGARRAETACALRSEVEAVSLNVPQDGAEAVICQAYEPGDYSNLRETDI
Assay: Radioligand binding, displacement of [3H]-prazosin from cloned α1d (rat) expressed in LTK cells
Settings: [3H]-prazosin 0.2 nM; cloned rat α1d in LTK cell membranes; 25° C., 50 minutes
Where a name gives a salt, the structure may show the parent alone.
measured attribute: Ki (nM)

Take a look at these entries with their results.
COc1ccccc1[C@H]1CCN(CCCCn2c(=O)[nH]c3c(sc4cccnc43)c2=O)C1 [Example 6, Dihydrochloride]; 0.22
COc1cccc([C@H]2CCN(CCn3c(=O)[nH]c4c(sc5ccccc54)c3=O)C2)c1 [Example 3, Monohydrochloride]; 20
COc1cccc([C@H]2CCN(CCn3c(=O)[nH]c4c(sc5cccnc54)c3=O)C2)c1 [Example 20, Dihydrochloride]; 69.4
COc1ccccc1[C@H]1CCN(CCCCn2c(=O)[nH]c3c(sc4ccc(Cl)nc43)c2=O)C1 [Example 10, Dihydrochloride]; 0.06

[P] COc1ccccc1[C@H]1CCN(CCn2c(=O)[nH]c3c(sc4ccccc43)c2=O)C1 [Example 1, Monohydrochloride]
[Q] COc1cccc([C@H]2CCN(CCCCn3c(=O)[nH]c4c(sc5ncccc54)c3=O)C2)c1 [Example 24, Dihydrochloride]
[R] COc1cnc2sc3c(=O)n(CCCCN4CC[C@H](c5ccccc5OC)C4)c(=O)[nH]c3c2n1 [Example 15, Dihydrochloride]
[S] COc1ccccc1[C@H]1CCN(CCCCN2C(=O)c3ccccc3S2(=O)=O)C1 [Example 17, Monohydrochloride]
Sequence the entries by Ki, beginning with the highest number. Labels, ranked as asked. Q, P, S, R

---

Target: α1b (Hamster) (Mesocricetus auratus, UniProt P18841)
Sequence (P18841 1-515): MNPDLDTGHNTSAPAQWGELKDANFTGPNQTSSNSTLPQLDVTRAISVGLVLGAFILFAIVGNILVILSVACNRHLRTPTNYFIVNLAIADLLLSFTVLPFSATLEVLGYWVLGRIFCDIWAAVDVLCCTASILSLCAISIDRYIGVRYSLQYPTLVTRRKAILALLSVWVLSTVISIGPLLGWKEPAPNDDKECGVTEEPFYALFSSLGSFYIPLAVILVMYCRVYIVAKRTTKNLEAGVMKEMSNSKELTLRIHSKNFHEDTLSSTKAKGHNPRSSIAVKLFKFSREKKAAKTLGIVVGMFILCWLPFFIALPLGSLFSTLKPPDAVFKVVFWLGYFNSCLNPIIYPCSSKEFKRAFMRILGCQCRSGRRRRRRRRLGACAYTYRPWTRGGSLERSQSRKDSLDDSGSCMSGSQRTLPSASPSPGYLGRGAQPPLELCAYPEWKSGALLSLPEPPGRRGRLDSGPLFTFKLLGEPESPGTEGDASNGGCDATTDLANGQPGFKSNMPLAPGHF
Test: Radioligand binding, displacement of [3H]-prazosin from cloned α1b (hamster) expressed in LTK cells
Settings: [3H]-prazosin 0.2 nM; cloned hamster α1b in LTK cell membranes; 25° C., 50 minutes
Counter-ions that a name gives are not always drawn.
measured attribute: Ki (nM)

Solved entries:
COc1ccccc1[C@@H]1CCN(CCCn2c(=O)[nH]c3c(sc4cccnc43)c2=O)C1 [Example 28, Dihydrochloride]; 88.6
COc1ccccc1[C@@H]1CCN(CCCCn2c(=O)[nH]c3c(sc4cccnc43)c2=O)C1 [Example 29, Dihydrochloride]; 4.02

[1] COc1cccc([C@H]2CCN(CCn3c(=O)[nH]c4c(sc5cccnc54)c3=O)C2)c1 [Example 20, Dihydrochloride]
[2] COc1ccccc1[C@@H]1CCN(CCn2c(=O)[nH]c3c(sc4ccccc43)c2=O)C1 [Example 25, Monohydrochloride]
Please let me know which one, 1 or 2 , has a lower measured Ki value. Kindly give the label for the entry you pick. 2
(2: 5.61 nM, 1: 194 nM)

[P] COc1cccc([C@@H]2CCN(CCn3c(=O)[nH]c4c(sc5ccccc54)c3=O)C2)c1 [Example 26, Monohydrochloride]
[Q] COc1ccccc1[C@H]1CCN(CCCCN2C(=O)COc3ccccc32)C1 [Example 18, Monohydrochloride]
[R] COc1ccccc1[C@@H]1CCN(CCn2c(=O)[nH]c3c(sc4cccnc43)c2=O)C1 [Example 27, Dihydrochloride]
[S] COc1ccccc1[C@H]1CCN(CCCCn2c(=O)[nH]c3c(sc4nccnc43)c2=O)C1 [Example 13, Dihydrochloride]
[T] COc1ccccc1[C@H]1CCN(CCn2c(=O)[nH]c3c(sc4cccnc43)c2=O)C1 [Example 4, bis(hydrochloride) Salt]
# sort list by recorded Ki, greatest to least A complete answer lists every label in the requested sequence. R, P, S, T, Q
(R: 15.7 nM, P: 10.7 nM, S: 2.99 nM, T: 1.52 nM, Q: 1.02 nM)

[A] COc1cccc([C@H]2CCN(CCCCn3c(=O)[nH]c4c(sc5ncccc54)c3=O)C2)c1 [Example 24, Dihydrochloride]
[B] COc1ccccc1[C@H]1CCN(CCCCn2c(=O)[nH]c3c(sc4ncc(-c5ccccc5)nc43)c2=O)C1 [Example 16, Dihydrochloride]
[C] COc1ccccc1[C@H]1CCN(CCCCn2c(=O)[nH]c3c(sc4cccnc43)c2=O)C1 [Example 6, Dihydrochloride]
[D] COc1ccccc1[C@H]1CCN(CCCCN2C(=O)CCc3ccccc32)C1 [Example 19, Monohydrochloride]
# ascending order, key=Ki Answer by listing the labels in the order asked for. D, C, B, A
